system: S462; experiment: relative IC50 (inflection point of fitted dose-response curve, CellTiter-Glo viability, 72 h; top asymptote may be below 50% inhibition); higher = less potent
Rule: relative IC50 of 400 nM or more gives MET; anything lower gives NOT MET.

compound | target or test system | class label
CCN(CC)CCCC(C)Nc1ccnc2cc(Cl)ccc12 (stereo unspecified) [Chloroquine aq] | S462 | MET
CCN(CC)CCOc1ccc(/C(=C(/Cl)c2ccccc2)c2ccccc2)cc1 [Clomifene] | S462 | MET
CN(N=O)C(=O)N[C@@H]1[C@@H](O)[C@H](O)[C@@H](CO)O[C@@H]1O [Streptozocin] | S462 | MET
CN(Cc1cnc2nc(N)nc(N)c2n1)c1ccc(C(=O)N[C@@H](CCC(=O)O)C(=O)O)cc1 [Methotrexate] | S462 | NOT MET

Q: // inclusive: relative IC50 at least 400 nM? input: O=C1CCC(N2C(=O)c3ccccc3C2=O)C(=O)N1 (stereo unspecified) [Thalidomide]
Result: MET

Q: // inclusive: relative IC50 at least 400 nM? input: CCOc1cc2ncc(C#N)c(Nc3ccc(OCc4ccccn4)c(Cl)c3)c2cc1NC(=O)/C=C/CN(C)C [Neratinib]
Result: NOT MET

Q: // inclusive: relative IC50 at least 400 nM? input: CS(=O)(=O)OCCCCOS(C)(=O)=O [Busulfan]
Result: MET

Q: // inclusive: relative IC50 at least 400 nM? input: C[C@]12O[C@H](C[C@]1(O)CO)n1c3ccccc3c3c4c(c5c6ccccc6n2c5c31)CNC4=O [Lestaurtinib]
Result: NOT MET

Q: // inclusive: relative IC50 at least 400 nM? input: CC1=C(/C=C/C(C)=C/C=C/C(C)=C/C(=O)O)C(C)(C)CCC1 [Tretinoin]
Result: MET

Q: // inclusive: relative IC50 at least 400 nM? input: O=C(CCBr)N1CCN(C(=O)CCBr)CC1 [Pipobroman]
Result: MET

Q: // inclusive: relative IC50 at least 400 nM? input: CC(C)Cn1cnc2c(N)nc3ccccc3c21 [Imiquimod]
Result: MET

Q: // inclusive: relative IC50 at least 400 nM? input: Oc1nc(-c2ccc(C(F)(F)F)cc2)nc2c1CSCC2 [XAV-939]
Result: MET

Q: // inclusive: relative IC50 at least 400 nM? input: COc1cc2c(NC3CCN(C(C)C)CC3)nc(C3CCCCC3)nc2cc1OCCCN1CCCC1 [UNC0638]
Result: MET

Q: // inclusive: relative IC50 at least 400 nM? input: C=CC(=O)Nc1cc2c(Nc3ccc(F)c(Cl)c3)ncnc2cc1OCCCN1CCOCC1 [Canertinib]
Result: MET

* * *

This listing pairs compounds with measured relative IC50.
test system: ST8814; test: relative IC50 (inflection point of fitted dose-response curve, CellTox-Green cytotoxicity, 72 h; top asymptote may be below 50%); higher = less potent

compound | relative IC50
CC(=O)Nc1cccc(-n2c(=O)n(C3CC3)c(=O)c3c(Nc4ccc(I)cc4F)n(C)c(=O)c(C)c32)c1 [Trametinib] | 46.3 nM
CN1CCc2c(c3ccccc3n2Cc2ccc(C(=O)NO)cc2)C1 [Tubastatin A] | > 10000 nM
CN(C)CCN1C(=O)c2cccc3cc(N)cc(c23)C1=O [Amonafide] | 3150 nM

Q: State the recorded relative IC50 for this entry: O=NN(CCCl)C(=O)NCCCl [Carmustine]
Result: > 10000 nM

Q: State the recorded relative IC50 for this entry: CCN1CCN(c2ccc(Nc3cc(N(C)C(=O)Nc4c(Cl)c(OC)cc(OC)c4Cl)ncn3)cc2)CC1 [NVP-BGJ398]
Result: > 1000 nM

Q: State the recorded relative IC50 for this entry: Cc1cc2c(F)c(Oc3ncnn4cc(OC[C@@H](C)O)c(C)c34)ccc2[nH]1 [Brivanib]
Result: > 1000 nM

Q: State the recorded relative IC50 for this entry: CN(N=O)C(=O)N[C@@H]1[C@@H](O)[C@H](O)[C@@H](CO)O[C@@H]1O [Streptozocin]
Result: > 10000 nM

Q: State the recorded relative IC50 for this entry: Nc1ncnc2c1nc(N)n2[C@@H]1O[C@H](CO)[C@@H](O)[C@H]1O [8-amino-adenosine]
Result: 1730 nM

* * *

tested on: STS26T; test: drug sensitivity score (DSS, CellTiter-Glo viability, 72 h) (DSS (dimensionless)); higher = more sensitive; extreme values may be limits of the assay
This listing pairs compounds with measured drug sensitivity score.
Please reply with the value in numeric form only.

Here are 3 compounds together with their reported answers.
compound | reported endpoint | measured value
O=C1NC(=O)[C@@H](c2cn3c4c(cccc24)CCC3)[C@@H]1c1c[nH]c2ccccc12 [Tivantinib] (max concentration tested 1000 nM) | drug sensitivity score | 6.92
N#Cc1ccc(COC[C@H]2O[C@@H](n3c(NCc4ccc(Cl)c(Cl)c4)nc4c(N)ncnc43)[C@H](O)[C@@H]2O)cc1 (max concentration tested 10000 nM) | drug sensitivity score | 3.06
CC(C)c1c(C(=O)Nc2ccccc2)c(-c2ccccc2)c(-c2ccc(F)cc2)n1CC[C@@H](O)C[C@@H](O)CC(=O)O [Atorvastatin] (max concentration tested 10000 nM) | drug sensitivity score | 5.4

Q: State the recorded drug sensitivity score for this entry: Cn1cnc2c(F)c(Nc3ccc(Br)cc3Cl)c(C(=O)NOCCO)cc21 [Selumetinib] (max concentration tested 10000 nM)
Result: 4.18

Q: State the recorded drug sensitivity score for this entry: CNC(=O)c1cc(Oc2ccc(NC(=O)Nc3cc(C(C)(C)C)nn3-c3ccc4ncccc4c3)c(F)c2)ccn1 [Rebastinib] (max concentration tested 1000 nM)
Result: 0

* * *

tested on: STS26T; assay: drug sensitivity score (DSS, CellTiter-Glo viability, 72 h) (DSS (dimensionless)); higher = more sensitive; extreme values may be limits of the assay
reported endpoint: drug sensitivity score
Please reply with the value in numeric form only.

compound | target or test system | reported endpoint | measured value
CNC(=O)c1ccc(N2C(=S)N(c3cnc(C#N)c(C(F)(F)F)c3)C(=O)C23CCC3)cc1F [ARN 509] (max concentration tested 10000 nM) | STS26T | drug sensitivity score | 0
COCC1(CO)C(=O)C2CCN1CC2 (stereo not drawn) [Prima-1 Met] (max concentration tested 10000 nM) | STS26T | drug sensitivity score | 0.507
Cn1nnc2c(C(N)=O)ncn2c1=O [Temozolomide] (max concentration tested 10000 nM) | STS26T | drug sensitivity score | 0
Cc1ccc(Nc2nccc(N(C)c3ccc4c(C)n(C)nc4c3)n2)cc1S(N)(=O)=O [Pazopanib] (max concentration tested 10000 nM) | STS26T | drug sensitivity score | 0
Oc1ncnc2[nH]ncc12 [Allopurinol] (max concentration tested 10000 nM) | STS26T | drug sensitivity score | 0
Cc1cc2c(C(C)C)c(O)c(O)c(C=O)c2c(O)c1-c1c(C)cc2c(C(C)C)c(O)c(O)c(C=O)c2c1O [AT 101] (max concentration tested 100000 nM) | STS26T | drug sensitivity score | 11.8
C#Cc1cccc(Nc2ncnc3cc(OC)c(OCCCCCCC(=O)NO)cc23)c1 [CUDC-101] (max concentration tested 10000 nM) | STS26T | drug sensitivity score | 8.5
CC[C@@H]1C(=O)OC[C@@H]1Cc1cncn1C [Pilocarpine] (max concentration tested 40000 nM) | STS26T | drug sensitivity score | 0
COC1=CC(c2cc3ccccc3[nH]2)=N/C1=C\c1[nH]c(C)cc1C [Obatoclax] (max concentration tested 10000 nM) | STS26T | drug sensitivity score | 5.87
CC[C@@]1(O)C(=O)OCc2c1cc1n(c2=O)Cc2cc3ccccc3nc2-1 [Camptotechin] (max concentration tested 5000 nM) | STS26T | drug sensitivity score | 22

Q: State the recorded drug sensitivity score for this entry: CC(C)C(=O)Nc1ccc([N+](=O)[O-])c(C(F)(F)F)c1 [Flutamide] (max concentration tested 10000 nM)
Result: 0

Q: State the recorded drug sensitivity score for this entry: Nc1nc2[nH]cnc2c(=S)[nH]1 [Thioguanine] (max concentration tested 10000 nM)
Result: 10.6

Q: State the recorded drug sensitivity score for this entry: CCOC(=O)CCNc1cc(N2CCc3ccccc3CC2)nc(-c2ccccn2)n1 [GSK-J4] (max concentration tested 100000 nM)
Result: 14.6

* * *

This listing pairs compounds with measured % inhibition.
tested on: ST8814; assay: % inhibition of CellTiter-Glo viability at highest tested concentration (72 h), relative to DMSO and benzethonium chloride controls; higher = more inhibition
Enter your answer as a number in %; do not include the unit.

Here are 8 compounds together with their reported answers.
compound | measured value
C/C(=C\c1csc(C)n1)[C@@H]1C[C@@H]2O[C@]2(C)CCC[C@H](C)[C@H](O)[C@@H](C)C(=O)C(C)(C)[C@@H](O)CC(=O)O1 [Patupilone] (max concentration tested 1000 nM) | 84.4
CNC(=O)c1ccc(N2C(=S)N(c3ccc(C#N)c(C(F)(F)F)c3)C(=O)C23CCC3)cc1F [RD162] (max concentration tested 10000 nM) | 10
O=C(O)CCCCC(CCSCc1ccccc1)SCc1ccccc1 (stereo not drawn) [CPI-613] (max concentration tested 10000 nM) | 0.691
CNC(=O)c1cc(Oc2ccc(NC(=O)Nc3ccc(Cl)c(C(F)(F)F)c3)c(F)c2)ccn1 [Regorafenib] (max concentration tested 10000 nM) | 74.2
CCc1cncnc1N1CCN(Cc2nc3ccc(C(F)(F)F)cc3[nH]2)CC1 (max concentration tested 10000 nM) | 13.6
COc1cccc2cc(-c3nc([C@H]4CC[C@H](C(=O)O)CC4)n4ncnc(N)c34)[nH]c12 [OSI-027] (max concentration tested 10000 nM) | 53
O=C(CCCCCCC(=O)Nc1ccccc1)NO [Vorinostat] (max concentration tested 10000 nM) | 101
CC(=O)O[C@]1(C(C)=O)CC[C@H]2[C@@H]3C=C(C)C4=CC(=O)CC[C@]4(C)[C@H]3CC[C@@]21C [Megestrol] (max concentration tested 10000 nM) | 4.75

Q: Provide the documented % inhibition with ST8814 as the system for c1ccc2c(CCNc3ccc(Nc4ccncc4)cc3)c[nH]c2c1 [Serdemetan] (max concentration tested 10000 nM)
Result: 99.5

Q: Provide the documented % inhibition with ST8814 as the system for CCS(=O)(=O)c1cccc(-c2cc(C(=O)NC3CCN(C)CC3)c(C)c3[nH]c4ncc(C)cc4c23)c1 [TAK-901] (max concentration tested 1000 nM)
Result: 57.6

Q: Provide the documented % inhibition with ST8814 as the system for C[C@]1(O)C[C@@H](c2nc(-c3ccc4ccc(-c5ccccc5)nc4c3)c3c(N)nccn32)C1 [Linsitinib] (max concentration tested 10000 nM)
Result: 11.1

Q: Provide the documented % inhibition with ST8814 as the system for Cc1c(CN2CCN(C(=O)[C@H](C)O)CC2)sc2c(N3CCOCC3)nc(-c3cnc(N)nc3)nc12 [GDC-0980] (max concentration tested 10000 nM)
Result: 90

Q: Provide the documented % inhibition with ST8814 as the system for CC(C)c1c(C(=O)Nc2ccccc2)c(-c2ccccc2)c(-c2ccc(F)cc2)n1CC[C@@H](O)C[C@@H](O)CC(=O)O [Atorvastatin] (max concentration tested 10000 nM)
Result: 55.2

Q: Provide the documented % inhibition with ST8814 as the system for Cc1c2oc3c(C)ccc(C(=O)N[C@@H]4C(=O)N[C@H](C(C)C)C(=O)N5CCC[C@H]5C(=O)N(C)CC(=O)N(C)[C@@H](C(C)C)C(=O)O[C@@H]4C)c3nc-2c(C(=O)N[C@@H]2C(=O)N[C@H](C(C)C)C(=O)N3CCC[C@H]3C(=O)N(C)CC(=O)N(C)[C@@H](C(C)C)C(=O)O[C@@H]2C)c(N)c1=O [Dactinomycin] (max concentration tested 1000 nM)
Result: 85.6

Q: Provide the documented % inhibition with ST8814 as the system for N#Cc1ccc(C(c2ccc(C#N)cc2)n2cncn2)cc1 [Letrozole] (max concentration tested 10000 nM)
Result: -5.31

Q: Provide the documented % inhibition with ST8814 as the system for O=C(CCBr)N1CCN(C(=O)CCBr)CC1 [Pipobroman] (max concentration tested 10000 nM)
Result: -3.56

Q: Provide the documented % inhibition with ST8814 as the system for O=C(Cc1ccc(-c2ccc(OCCN3CCOCC3)cc2)cn1)NCc1ccccc1 [KX2-391] (max concentration tested 10000 nM)
Result: 83.5

Q: Provide the documented % inhibition with ST8814 as the system for O=C(NC[C@H](O)CO)c1ccncc1Nc1ccc(I)cc1F [Pimasertib] (max concentration tested 10000 nM)
Result: 95.9

Q: Provide the documented % inhibition with ST8814 as the system for CNNCc1ccc(C(=O)NC(C)C)cc1 [Procarbazine] (max concentration tested 10000 nM)
Result: 1.52

Q: Provide the documented % inhibition with ST8814 as the system for CN(N=O)C(=O)N[C@@H]1[C@@H](O)[C@H](O)[C@@H](CO)O[C@@H]1O [Streptozocin] (max concentration tested 10000 nM)
Result: 6.38

Q: Provide the documented % inhibition with ST8814 as the system for NC(=O)Nc1cc(-c2cccc(F)c2)sc1C(=O)N[C@H]1CCCNC1 [AZD7762] (max concentration tested 1000 nM)
Result: 86.2

Q: Provide the documented % inhibition with ST8814 as the system for CN(C)CCOc1ccc(/C(=C(/CCCl)c2ccccc2)c2ccccc2)cc1 [Toremifene] (max concentration tested 10000 nM)
Result: 34.5

Q: Provide the documented % inhibition with ST8814 as the system for C#Cc1cccc(Nc2ncnc3cc(OC)c(OCCCCCCC(=O)NO)cc23)c1 [CUDC-101] (max concentration tested 10000 nM)
Result: 102
